target: T1, human SIRPγ on stably transfected CHO cells (human, UniProt Q9P1W8 29-387); test: flow cytometry, CHO transfectants, anti-human IgG
T1 construct: also called Human SIRPγ CHO
T1 sequence (Q9P1W8 29-387 limits assumed): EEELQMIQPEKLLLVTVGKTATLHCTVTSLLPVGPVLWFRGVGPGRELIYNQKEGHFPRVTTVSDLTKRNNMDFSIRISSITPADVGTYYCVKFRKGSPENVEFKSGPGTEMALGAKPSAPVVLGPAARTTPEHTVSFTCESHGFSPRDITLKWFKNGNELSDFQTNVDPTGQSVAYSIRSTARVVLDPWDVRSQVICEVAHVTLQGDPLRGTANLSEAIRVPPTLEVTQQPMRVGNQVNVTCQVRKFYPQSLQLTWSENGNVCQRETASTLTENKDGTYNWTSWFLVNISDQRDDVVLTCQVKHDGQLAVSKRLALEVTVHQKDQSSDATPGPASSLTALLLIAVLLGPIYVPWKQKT
PROPERTY LABEL: EC50 (read off the curve)

# BINDER, EC50 (read off the curve)
data = [
    ("Antibody 80 (antibody, V domains shown) VH: QVQLVQSGAEVKKPGASVKVSCKASGYTFTRYDINWVRQAPGQGLEWMGWMNPNSGNTGYAQKLQGRVTMTRDTSTSTVYMELSSLRSEDTAVYYCARERVGYCSSTSCLHPLDYWGQGTLVTVSS VL: DIQMTQSPSSLSASVGDRVTITCRASQGIRNDLGWYQQKPGKAPKLLIYSASNLQSGVPSRFSGSGSGTDFTLTISSLQPEDFATYYCQQSYDVPLTFGGGTKVEIK", "~0.2 µg/mL"),
]

Provide one value: measured EC50 (read off the curve) of Antibody 60 (antibody, V domains shown) VH: EVQLLESGGGLVQPGGSLRLSCAASGFTLGSYWMHWVRQAPGKGLEWVSLISWDGGSTYYADSVKGRFTISRDNSKNTLYLQMNSLRAEDTAVYYCAKGPWVGYSGYDLNYYYYGMDVWGQGTTVTVSS VL: DIQMTQSPSSLSASVGDRVTITCRASQDIRRALAWYQQKPGKAPKLLIYAASSLQSGVPSRFSGSGSGTDFTLTISSLQPEDFATYYCLQHNSYPPTFGQGTKLEIK ~0.9 µg/mL

Provide one value: measured EC50 (read off the curve) of Antibody 88 (antibody, V domains shown) VH: QVQLVQSGAEVKKPGASVKVSCKASGYTFTSHDINWVRQAPGQGLEWMGWMNANNGNAGYAQKFQGRVTMTRDTSTSTVYMELSSLRSEDTAVYYCAKDLSPSSSWSTYYYYYGMDVWGQGTMVTVSS VL: DIQMTQSPSSLSASVGDRVTITCRASQSISNLLAWYQQKPGKAPKLLIYAASSLQSGVPSRFSGSGSGTDFTLTISSLQPEDFATYYCQQSYSTPYTFGQGTKLEIK ~0.7 µg/mL
